Property: melting point; scope: individual compounds
Counter-ions that a name gives are not always drawn.

{"compound": "CN(CCO)C[C@@H]1CC(c2ccc(-c3ccc(N4C[C@H](Cn5ccnn5)OC4=O)cc3F)cn2)=NO1", "assay-endpoint": "melting point", "reported-result": "153 to 156 °C"}
{"compound": "CN(CC(=O)OC(C)(C)C)C[C@@H]1CC(c2ccc(-c3ccc(N4C[C@H](Cn5ccnn5)OC4=O)cc3F)cn2)=NO1", "assay-endpoint": "melting point", "reported-result": "180 °C"}
{"compound": "O=C1O[C@@H](Cn2ccnn2)CN1c1ccc(-c2ccc(C3=NO[C@H](CN4CC=CCC4)C3)nc2)c(F)c1 (as salt: hydrochloride)", "assay-endpoint": "melting point", "reported-result": "250 to 255 °C"}
{"compound": "N[C@@H](CC(=O)O)C(=O)NC[C@@H]1CC(c2ccc(-c3ccc(N4C[C@H](Cn5ccnn5)OC4=O)cc3F)cn2)=NO1", "assay-endpoint": "melting point", "reported-result": "224 to 226 °C"}
{"compound": "C[C@H](N)C(=O)NC[C@@H]1CC(c2ccc(-c3ccc(N4C[C@H](Cn5ccnn5)OC4=O)cc3F)cn2)=NO1 (as salt: hydrochloride)", "assay-endpoint": "melting point", "reported-result": "242 to 244 °C"}
{"compound": "Cl.O=C1O[C@@H](Cn2ccnn2)CN1c1ccc(-c2ccc(C3=NO[C@@H](CN4CCOCC4)C3)nc2)c(F)c1", "assay-endpoint": "melting point", "reported-result": "239 to 245 °C"}

Now turn to the next compound.
Qu. Entry O=C(O)CNCC(=O)NC[C@@H]1CC(c2ccc(-c3ccc(N4C[C@H](Cn5ccnn5)OC4=O)cc3F)cn2)=NO1 : reported melting point = ?
Ans. 200 to 210 °C
